- Test system: SK-MEL-5
- test method notes: NCI tumour cell line growth inhibition, 48 h
Calls of active or inactive are those of the source. No stated cut-off is given here; in the data, active = GI50 up to about 1.1 µM and inactive = higher.
Respond only with the outcome that fits, drawn from active, inactive

Any idea what this test logged for CCOC(=O)C(/N=N\c1ccc(S(N)(=O)=O)cc1)C(C)=O (stereo not drawn) ?
inactive

Any idea what this test logged for O=[N+]([O-])c1ccccc1S(=O)(=O)c1cccc2c1NCCC2 ?
inactive

Any idea what this test logged for CC(c1ccccc1)n1cncc1C(=O)NN1CCN(C)CC1 (stereo not drawn) ?
inactive

Any idea what this test logged for OCCN(CCO)c1nc(N2CCCCC2)c2nc(N(CCO)CCO)nc(N3CCCCC3)c2n1 ?
inactive

Any idea what this test logged for CC(=O)CCC(=O)CC(O)(C(F)(F)F)C(F)(F)F ?
inactive

Any idea what this test logged for O=C(OC(/C=C/c1ccccc1)P1(=O)N(Cc2ccccc2)[C@@H]2CCCC[C@H]2N1Cc1ccccc1)c1ccccc1 (stereo partly drawn) ?
inactive

Any idea what this test logged for COc1cccc(/C=C2\N=C(Cl)OC2=O)c1O ?
inactive

Any idea what this test logged for CO[C@H]1C[C@@H]2CC[C@@H](C)[C@@](O)(O2)C(=O)C(=O)N2CCCC[C@H]2C(=O)O[C@H]([C@H](C)C[C@@H]2CC[C@@H](OC(=O)C(C)(CO)CO)[C@H](OC)C2)CC(=O)[C@H](C)/C=C(\C)[C@@H](O)[C@@H](OC)C(=O)[C@H](C)C[C@H](C)/C=C/C=C/C=C/1C ?
active

###

- Tested on: CAKI-1
- test method notes: NCI tumour cell line growth inhibition, 48 h
Activity calls are given as the source filed them. Cut-off read from the data, not from the text of the source: active = GI50 up to about 1.1 µM and inactive = higher.
Respond only with the outcome that fits, drawn from class 1 (active), class 0 (inactive)

Any idea what this test logged for COc1ccc2c3c([nH]c2c1[N+](=O)[O-])C(C)N(C(=O)/C=C/c1ccccc1)CC3 (stereo unspecified) ?
class 0

Any idea what this test logged for CC1(c2ccccc2)CC12C(=O)NC(=O)NC2=O (stereo unspecified) ?
class 0

Any idea what this test logged for CCN(CC)CCn1c2ccccc2c(=O)c2c(O)ccc(O)c21 ?
class 0

Any idea what this test logged for CC(c1ccccc1)n1cncc1C(=O)NN1CCN(C)CC1 (stereo unspecified) ?
class 0

Any idea what this test logged for COc1cc(Nc2cnc3cc(N)ccc3n2)cc(OC)c1OC ?
class 0

Any idea what this test logged for CC(C)(CN1CCCCC1)C(=O)CC(SCCS(=O)(=O)O)c1ccc(Br)cc1 (stereo unspecified) ?
class 0

Any idea what this test logged for C1CC2=C(C1)[Se]C(=C1Sc3nsnc3S1)[Se]2 ?
class 0

Any idea what this test logged for CCCCCCCCCCC(O)C1CCC(C2CCC(C(O)CCCCC(O)CCCCCC(O)CC3=CC(C)OC3=O)O2)O1 (stereo unspecified) ?
class 0

Any idea what this test logged for NNC(=O)CCc1ccc2ccc3ccccc3c2c1 ?
class 0

Any idea what this test logged for C=CCc1cccc(/C=N\N/C(N)=N/O)c1O ?
class 0

Any idea what this test logged for CCOC(=O)[C@@H]1CCN2CN(c3ccc(OC)cc3)N=C(c3ccccc3)[C@@]12c1ccccc1 ?
class 0

Any idea what this test logged for Cc1ccc(S(=O)(=O)N2CCNCCN(S(=O)(=O)c3ccc(C)cc3)CCNCC2)cc1 ?
class 0

Any idea what this test logged for COC(=O)CCC(C)C1CCC2C3CCC4CC5CCC4(C)C3(O5)C(Br)C(Br)C12C (stereo unspecified) ?
class 0

Any idea what this test logged for C/C(CCn1[nH]c(=O)ccc1=O)=N\N=C(N)N ?
class 0

Any idea what this test logged for COC(=O)/C=C/c1cc(O)c2c(c1)[C@H](C(=O)OC)[C@@H](c1ccc(O)c(O)c1)O2 ?
class 1

Any idea what this test logged for CN1c2ccccc2S(=O)(=O)n2c(CCc3ccccc3)nnc21 ?
class 0

Any idea what this test logged for CCCCc1ccc(Nc2nc(Cl)c3c(ncn3C3CC(Oc4ccc(C)cc4)C(COc4ccc(C)cc4)O3)n2)cc1 (stereo unspecified) ?
class 0

Any idea what this test logged for Nc1ccc(Oc2ccc(C34CC5CC6C3CC3CC4C(C5)C6(c4ccc(Oc5ccc(N)cc5)cc4)C3)cc2)cc1 ?
class 0

Any idea what this test logged for CCOC(=O)c1ccc(NC(=O)Oc2ccc3c(C)cc(=O)oc3c2)cc1 ?
class 0

Any idea what this test logged for Cc1ccc2c(c1)-c1c(C#N)c(N)nc(-c3ccccc3)c1CCS2(=O)=O ?
class 0

Any idea what this test logged for c1cnc2c(c1)-n1cccc1C1(CCCCC1)NN2 ?
class 0

###

- Tested on: SNB-19
- test method notes: NCI tumour cell line growth inhibition, 48 h
Calls of active or inactive are those of the source. Cut-off read from the data, not from the text of the source: active = GI50 up to about 1.1 µM and inactive = higher.
reported metric: GI50

What value of GI50 has been reported for the following compound? COC(=O)C1=CC(=O)OC1(OO)c1ccc(Br)cc1 (stereo unspecified)
> 100 µM (inactive)

What value of GI50 has been reported for the following compound? Cc1ccc2oc3c(ccc(=O)n3C)c(=O)c2c1
> 100 µM (inactive)

What value of GI50 has been reported for the following compound? Nc1nc(Nc2ccccc2)c2[nH]cnc2n1
> 100 µM (inactive)

What value of GI50 has been reported for the following compound? CCCCC1Cc2cc(O)ccc2-c2n1c1cc(O)ccc1[n+]2C.CCCCC1Cc2cc(O)ccc2-c2n1c1ccc(O)cc1[n+]2C (stereo unspecified)
1.49 µM (inactive)

What value of GI50 has been reported for the following compound? Cc1[nH]n(-c2ncc(C#N)c(=O)[nH]2)c(=O)c1CCO
> 100 µM (inactive)

What value of GI50 has been reported for the following compound? Cc1ccc2c(c1)-c1c(C#N)c(N)nc(-c3ccccc3)c1CCS2(=O)=O
4.16 µM (inactive)

What value of GI50 has been reported for the following compound? CNC(=O)OCc1nc(SC2CCCCO2)n(C)c1COC(=O)NC (stereo unspecified)
> 100 µM (inactive)

What value of GI50 has been reported for the following compound? CC(C)=NNc1snnc1C(N)=O
> 100 µM (inactive)

What value of GI50 has been reported for the following compound? Cc1cc(O)c(C(C)C)cc1/N=C/c1ccccc1O
17.5 µM (inactive)

What value of GI50 has been reported for the following compound? COc1ccc(Cc2c(-c3ccc(C)cc3)n[nH]c(=O)c2C2C(=O)N(c3ccccc3)N=C2c2ccccc2)cc1 (stereo unspecified)
36.1 µM (inactive)

What value of GI50 has been reported for the following compound? Cc1cc2c(cc1Cl)SC(NNCCO)=NS2(=O)=O
> 100 µM (inactive)

###

- System: Malme-3M
- test method notes: NCI tumour cell line growth inhibition, 48 h
The source made the active and inactive calls. Rule as the data show it: active = GI50 up to about 1.1 µM and inactive = higher.
Respond only with the outcome that fits, drawn from active, inactive

Any idea what this test logged for COc1cccc(N(CN2C(=O)CCC2C(=O)O)C(C)=O)c1 (centres undefined) ?
inactive

Any idea what this test logged for O=C(Nc1ccc(Br)cc1)C(=O)C(C(=O)c1ccccc1F)C1OC(=O)c2ccccc21 (centres undefined) ?
inactive

Any idea what this test logged for CCCS(=O)OC1C(C2COC(C)(C)O2)OC2OC(C)(C)OC21 (centres undefined) ?
inactive

Any idea what this test logged for CC(c1ccccc1)n1cncc1C(=O)NN1CCN(C)CC1 (centres undefined) ?
inactive

Any idea what this test logged for O=C(NCCCN(CCCCN(CCCNC(=O)C(F)(F)F)Cc1ccccc1)Cc1ccccc1)C(F)(F)F ?
inactive

Any idea what this test logged for Cc1ccc(S(=O)(=O)N(CC(=O)O)c2ccccc2)cc1 ?
inactive

Any idea what this test logged for O=C1N/C(=N/N=C/C(O)C(O)C(O)CO)N/C1=C\c1c[nH]c2ccccc12 (centres undefined) ?
inactive

Any idea what this test logged for CC1OC(O[C@H]2CC[C@]3(C=O)[C@H]4CC[C@]5(C)[C@H](C6=CC(=O)OC6)CC[C@]5(O)[C@@H]4C=C[C@]3(O)C2)CC(O)C1O (some centres undefined) ?
active

Any idea what this test logged for c1ccc(CC2(c3cc4ccccc4[nH]3)OCCO2)nc1 ?
inactive

Any idea what this test logged for N#Cc1c(N)nc2c3c1NC(=O)C(C(N)=O)C3c1ccccc1O2 (centres undefined) ?
inactive

Any idea what this test logged for Cc1ccc(S(=O)(=O)c2c(N)n(CCN(C)C)c3nc4ccccc4nc23)cc1 ?
inactive

Any idea what this test logged for COc1cccc(/C=C2\N=C(Cl)OC2=O)c1O ?
inactive

Any idea what this test logged for COc1ccc(C[C@@H](C(=O)O[C@H](C)[C@H](NC(=O)[C@@H](CC(C)C)N(C)C(=O)C2CCCN2C(=O)[C@H](C)O)C(=O)N2CCCCNC(=O)[C@@H](C)C(=O)[C@H](C(C)C)OC(=O)C[C@H](O)[C@H]2CC(C)C)N(C)C(C)=O)cc1 (some centres undefined) ?
inactive

Any idea what this test logged for CC1(O)CC23CC1CCC2(C)C12CCCC(C)(C(=O)O1)C2CC3O (centres undefined) ?
inactive

Any idea what this test logged for Cn1c2ccccc2c(=O)c2cccc(C(=O)NC(CCC(N)=O)C(=O)O)c21 (centres undefined) ?
inactive

Any idea what this test logged for O=C(O/N=C1/CCC/C1=C\c1ccccc1)c1ccc(Cl)c(Cl)c1 ?
inactive

Any idea what this test logged for COc1cc(C2c3cc4c(cc3[C@H](OCCN(C)C)[C@@H]3COC(=O)C23)OCO4)cc(OC)c1O (some centres undefined) ?
active

Any idea what this test logged for CNC(=O)OCc1nc(SC2CCCCO2)n(C)c1COC(=O)NC (centres undefined) ?
inactive

Any idea what this test logged for O=c1oc(=O)c2oc3ccccc3oc1=2 ?
inactive
